These entries and their values trace back to ChEMBL document CHEMBL1122625.

Tested on: L1210
Assay: In vitro antitumor activity in the culture media (that produced 50% inhibition of the L1210 leukemia cell growth as compared to the untreated cells)
Format: functional
Conditions: Mus musculus, read-out: ID50 (the source's name)
The following molecules are shown together with reported log10(IC50) values.
Note the log scale: values are log10 of IC50 expressed in µM.

The examples below pair each entry with its known result.
{"givenSmiles": "Nc1cc2c(ncn2[C@H]2C[C@H](O)[C@@H](CO)O2)c(O)n1", "experimentalTarget": "L1210", "log10(IC50)": 1.30}
{"givenSmiles": "Nc1cc2ncn([C@@H]3C[C@H](O)[C@@H](CO)O3)c2c(O)n1", "experimentalTarget": "L1210", "log10(IC50)": 1.90}
{"givenSmiles": "Nc1cc2[nH]cnc2c(=O)[nH]1", "experimentalTarget": "L1210", "log10(IC50)": 1.79}
{"givenSmiles": "Nc1cc2c(ncn2[C@@H]2O[C@H](CO)[C@@H](O)[C@H]2O)c(=O)[nH]1", "experimentalTarget": "L1210", "log10(IC50)": 1.26}
{"givenSmiles": "Nc1cc2c(ncn2[C@@H]2O[C@@H]3COP(=O)(O)O[C@H]3[C@H]2O)c(O)n1", "experimentalTarget": "L1210", "log10(IC50)": 0.61}

Query string: Reported log10(IC50), molecule NNc1cc2ncnc-2c(O)n1N : ____
Result string: 1.54

====

Assay: Toxic level was evaluated; None
Assay type: ADME
measuredEndpoint: Toxic level

{"givenSmiles": "Nc1cc2ncn([C@H]3C[C@H](O)[C@@H](CO)O3)c2c(O)n1", "assayValue": "Not Active"}
{"givenSmiles": "NC(=O)c1ncn([C@@H]2O[C@H](CO)[C@@H](O)[C@H]2O)n1", "assayValue": "Not Active"}
{"givenSmiles": "Nc1cc2c(ncn2[C@@H]2C[C@H](O)[C@@H](CO)O2)c(O)n1", "assayValue": "Not Active"}
{"givenSmiles": "Nc1cc2c(ncn2[C@H]2C[C@H](O)[C@@H](CO)O2)c(O)n1", "assayValue": "Not Active"}
